# Test system: RARb homodimer (NR concentration 270 nM)
# experimentDescription: PBM binding z-score (relative to random genomic background probes); higher = stronger binding; sequences stand for … in GC…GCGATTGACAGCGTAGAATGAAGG
measure: PBM binding z-score

>>> valuemeasured("GCTCGGAGGACAAGGTCAGGGCTTTGTCCGTAGA")
3.31
>>> valuemeasured("CCGCGTAGGTTACGAGGGGGCATTCAGTGCGAAT")
2.04
>>> valuemeasured("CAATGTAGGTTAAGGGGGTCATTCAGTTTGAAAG")
4.09
>>> valuemeasured("CCGACGGGGGCAAGGTTACCATAACGCACAGCCA")
2.54
>>> valuemeasured("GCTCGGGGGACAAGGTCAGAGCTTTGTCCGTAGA")
3.12
>>> valuemeasured("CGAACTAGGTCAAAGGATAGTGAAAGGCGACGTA")
2.35
>>> valuemeasured("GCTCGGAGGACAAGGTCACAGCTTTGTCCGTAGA")
3.72
>>> valuemeasured("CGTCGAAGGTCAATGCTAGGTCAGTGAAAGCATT")
5.11
>>> valuemeasured("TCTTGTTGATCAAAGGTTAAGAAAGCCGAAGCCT")
1.89
>>> valuemeasured("ATATGTAGGTTTGGGTCATTCAGAAAGTAGGGAA")
2.2
>>> valuemeasured("ATATGTAGGTTAGGGTCATTCATAAAGTAGGGAA")
3.59
>>> valuemeasured("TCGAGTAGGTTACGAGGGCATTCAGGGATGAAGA")
1.43
>>> valuemeasured("TAGCCTAGGTCACGGGCCAGTATACCACGCGAAC")
3.83
>>> valuemeasured("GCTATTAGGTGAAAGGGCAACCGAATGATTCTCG")
2.47
>>> valuemeasured("TAGCCTAGCTCATTCAGGGGCCAGTATAGAAAGC")
-0.0305
>>> valuemeasured("TCTCGGAGGACACGAAAGGTGAGAGCTCGACATC")
2.24
>>> valuemeasured("CCGAGTAGGTTACGAGGGGGTATTCAGTGCGAAT")
1.15
>>> valuemeasured("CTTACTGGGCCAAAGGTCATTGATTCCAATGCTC")
4.58
>>> valuemeasured("CGAACTAGGTCGAAGGACAGTGAAAGGCGACGTA")
0.802
>>> valuemeasured("TCGAGTAGGTTACGGGGGCATTCAAGGATGAAGA")
2.13
>>> valuemeasured("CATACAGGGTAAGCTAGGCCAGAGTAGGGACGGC")
0.192
>>> valuemeasured("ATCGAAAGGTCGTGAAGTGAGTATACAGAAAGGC")
2.17

Source: the supplement of paper PMC6555819
